System: SKOV3
Assay: Primary qHTS to identify gynecologic anti-cancer compounds using libraries of approved drugs and bioactive compounds (AID 1345084); note: % is set by controls: 0 for no effect and ±100 for the full control effect; nearly all actives have a fitted effect of over 55% in size
Details: Gynecologic cancer cell panel viability, ATPlite luminescence, 48 h; series mostly up to 57.5 µM
Records with an inconclusive call do not appear. The source made the active and inactive calls. Calls come from the whole dose curve; as a rule, active = well fitted cell-killing curve with a large enough effect; inconclusive = small, poorly fitted or top-dose-only effect, or effect the other way; inactive = flat fitted curve, though single readings scatter.
readout: activity change, negative = cytotoxicity

INSERT INTO measurements (molecule, result) VALUES
  ('CC1(C)CC[C@]2(C(=O)O)[C@H](O)C[C@]3(C)C(=CCC4[C@@]5(C)CC[C@H](O[C@@H]6O[C@H](CO[C@@H]7OC[C@H](O)[C@H](O)[C@H]7O[C@@H]7OC[C@@H](O)[C@H](O)[C@H]7O)[C@@H](O)[C@H](O)[C@H]6O[C@@H]6O[C@H](CO)[C@@H](O)[C@H](O)[C@H]6O)C(C)(C)C5CC[C@]43C)[C@@H]2C1 (stereo not given in full)', '21.8% [at 11.6 µM] (inactive)'),
  ('C[C@@H]1O[C@@H](O[C@H]2[C@H](O)[C@@H](O[C@@H]3O[C@H](CO)[C@@H](O)[C@H](O[C@@H]4O[C@H](CO)[C@@H](O)[C@H](O)[C@H]4O)[C@H]3O)[C@H](O[C@H]3CC[C@@]4(C)C(=CC[C@@H]5C4CC[C@@]4(C)C5C[C@@H]5OC6(CC[C@@](C)(CO[C@@H]7O[C@H](CO)[C@@H](O)[C@H](O)[C@H]7O)O6)[C@@H](C)[C@@H]54)C3)O[C@@H]2CO)[C@H](O)[C@H](O)[C@H]1O (stereo not given in full)', '5.85% [at 6.55 µM] (inactive)'),
  ('CC1(C)CC[C@]2(C(=O)O[C@@H]3O[C@H](CO[C@@H]4O[C@H](CO)[C@@H](O)[C@H](O)[C@H]4O[C@@H]4O[C@H](CO)[C@H](O)[C@H](O)[C@H]4O)[C@@H](O)[C@H](O[C@@H]4O[C@H](CO)[C@@H](O)[C@H](O)[C@H]4O)[C@H]3O)CC[C@]3(C)C(=CCC4[C@@]5(C)CC[C@H](O[C@@H]6OC[C@@H](O)[C@H](O)[C@H]6O)[C@@](C)(C(=O)O)C5CC[C@]43C)[C@@H]2C1 (stereo not given in full)', '19.9% [at 6.55 µM] (inactive)');

# return activity change, negative = cytotoxicity for each item in the list
1. COC1CC(O[C@H]2CC[C@@]3(C)C(=CC[C@]4(O)C3[C@H](OC(C)=O)[C@@H](OC(=O)c3ccccc3)[C@]3(C)[C@@H](C(C)=O)CC[C@@]34O)C2)OC(C)C1OC1CC(OC)C(OC2CC(OC)C(OC3OC(C)C(OC4OC(CO)C(O)C(O)C4O)C(OC)C3O)C(C)O2)C(C)O1 (stereo not given in full)
2. CC1(C=O)CC[C@]2(C(=O)O[C@@H]3O[C@H](CO)[C@@H](O)[C@H](O)[C@H]3O)CC[C@]3(C)C(=CCC4[C@@]5(C)C[C@H](O)[C@H](O[C@@H]6OC[C@@H](O)[C@H](O)[C@H]6O)[C@@](C)(CO)C5CC[C@]43C)C2C1 (stereo not given in full)

11% [at 6.55 µM] (inactive)
1.41% [at 11.6 µM] (inactive)

###

Tested on: JEG-3
Test: Primary qHTS to identify gynecologic anti-cancer compounds using libraries of approved drugs and bioactive compounds (AID 1345084); note: % is set by controls: 0 for no effect and ±100 for the full control effect; nearly all actives have a fitted effect of over 55% in size
Conditions: Gynecologic cancer cell panel viability, ATPlite luminescence, 48 h; series mostly up to 57.5 µM
Results filed as inconclusive are left out. Active and inactive are the calls of the source. Calls follow the shape of the dose curve; as a rule, active = well fitted cell-killing curve with a large enough effect; inconclusive = small, poorly fitted or top-dose-only effect, or effect the other way; inactive = flat fitted curve, though single readings scatter.
readout: activity change, negative = cytotoxicity

Would you please look over these solved cases?
INSERT INTO assay_data (molecule, readout, result) VALUES
  ('COc1c2cc(c(O)c1OC)-c1cc(ccc1O)CCC(O)CCCC2 (stereo not given)', 'activity change, negative = cytotoxicity', 'inactive'),
  ('CC(C)(F)C[C@@H](N[C@@H](c1ccc(-c2ccc(S(C)(=O)=O)cc2)cc1)C(F)(F)F)C(=O)NC1(C#N)CC1', 'activity change, negative = cytotoxicity', 'inactive'),
  ('OCC1OC(Oc2cc(O)cc(/C=C/c3ccc(O)cc3)c2)C(O)C(O)C1O (stereo not given)', 'activity change, negative = cytotoxicity', 'inactive'),
  ('CC(C)=CCC/C(C)=C/CCC1(C)Oc2c(c(O)cc3c2CN(C(CCC(=O)O)C(=O)O)C3=O)CC1O (stereo not given)', 'activity change, negative = cytotoxicity', 'inactive'),
  ('CC(=O)C12OC(C)(C)OC1CC1C3CCC4=CC(=O)C=CC4(C)C3(F)C(O)CC12C (stereo not given)', 'activity change, negative = cytotoxicity', 'inactive'),
  ('C[C@@H]1C[C@@H]2O[C@H]2/C=C\C=C\C(=O)Cc2c(Cl)c(O)cc(O)c2C(=O)O1', 'activity change, negative = cytotoxicity', 'inactive'),
  ('CC(C)[C@@H]1C(=O)N(S(C)(=O)=O)[C@@H]2CCN(C(=O)/C=C/CN3CCCCC3)[C@H]21', 'activity change, negative = cytotoxicity', 'inactive'),
  ('CC(C)=CC/C=C(\C)[C@H]1CC[C@]2(C)[C@@H]1[C@H](O)C[C@@H]1[C@@]3(C)CC[C@H](O)C(C)(C)[C@@H]3[C@@H](O[C@@H]3O[C@H](CO)[C@@H](O)[C@H](O)[C@H]3O)C[C@]12C', 'activity change, negative = cytotoxicity', 'inactive');

# return activity change, negative = cytotoxicity for each item in the list
1. CC(=O)/C=C/[C@H]1[C@](C)(O)[C@@H](O)[C@H](OC(C)=O)C2C(C)(C)CCC[C@@]21C (stereo not given in full)
2. COc1ccc(-c2ccc3c(N4CCOCC4)nc(N4CC(C)OC(C)C4)nc3n2)cc1CO (stereo not given)
3. CO[C@H]1/C=C/C=C/C=C/C[C@H](OC(=O)[C@@H](C)NC(=O)C2CCCCC2)[C@H](C)[C@@H](O)/C(C)=C/CCc2cc(O)cc(c2)NC(=O)C1

inactive
inactive
inactive

# return activity change, negative = cytotoxicity for each item in the list
1. CC(C)(O)C1CCC(C)(C2CCC3(C)C4CCC5C(C)(C(=O)OC6OC(CO)C(O)C(O)C6O)C(O)CC(O)C56CC46CCC23C)O1 (stereo not given)
2. C[C@H](CCC(=O)O)[C@H]1CC[C@H]2[C@@H]3C[C@H](O)[C@@H]4C[C@H](O)CC[C@]4(C)[C@H]3CC[C@]12C
3. O=C1CSc2ccccc2N1Cc1cccc(C(F)(F)F)c1
4. CC[C@H]1OC(=O)[C@H](C)[C@@H](O[C@H]2C[C@@](C)(OC)[C@@H](O)[C@H](C)O2)[C@H](C)[C@@H](O[C@@H]2O[C@H](C)C[C@H](N(C)C)[C@H]2O)[C@](C)(O)C[C@@H](C)C(=O)[C@H](C)[C@H]2OC(=O)O[C@@]21C

1. inactive
2. inactive
3. inactive
4. inactive

The measurements presented in this section are drawn from PubChem BioAssay (NCATS).
